Origin of measurements: ChEMBL document CHEMBL1125324

system under test: Vasopressin V2 receptor (Rattus norvegicus)
assay protocol: Displacement of [3H]arginine vasopressin from rat kidney medullary (AVP-V2 site) at 10 uM
Assay type: tissue-based
Where a SMILES comes first, the peptide text is derived from it. [ ]: non-standard residue; d: D form. Pip = O=C(O)[C@@H]1CCCCN1; dPip = O=C(O)[C@H]1CCCCN1; dNMeA = CN[C@H](C)C(=O)O
assay metric: inhibition (%)

CC[C@H](C)[C@@H]1NC(=O)[C@@H](Cc2ccccc2)NC(=O)[C@@H]2CCCN2C(=O)[C@@H](C)N(C)C(=O)[C@@H]2CCCCN2C(=O)[C@H]2CCCCN2C1=O (cyclo(I[dPip][Pip][dNMeA]P[dF]))
12

P = CC[C@H](C)[C@H]1C(=O)N2CCCC[C@@H]2C(=O)N2CCCC[C@H]2C(=O)N(C)[C@H](Cc2ccccc2)C(=O)N2CCC[C@H]2C(=O)N[C@H](Cc2ccccc2)C(=O)N1C
Q = CC[C@H](C)[C@@H]1NC(=O)[C@@H](Cc2ccccc2)NC(=O)[C@@H]2CCCN2C(=O)[C@@H](Cc2ccccc2)N(C)C(=O)[C@H](Cc2c[nH]cn2)NC(=O)[C@H]2CCCCN2C1=O
R = C[C@@H]1NC(=O)[C@@H](Cc2ccccc2)NC(=O)[C@@H]2CCCN2C(=O)[C@H](Cc2ccccc2)N(C)C(=O)[C@@H]2CCCCN2C(=O)[C@H]2CCCCN2C1=O
S = CC[C@H](C)[C@@H]1NC(=O)[C@@H](Cc2ccccc2)NC(=O)[C@@H]2CCCN2C(=O)[C@@H](Cc2ccccc2)N(C)C(=O)[C@@H]2CCCN2C(=O)[C@H]2CCCCN2C1=O
query: Please list these in order of increasing inhibition. Thank you! Response format: the labels, sorted as the prompt asks.
result: R, P, S, Q
(R: 2%, P: 19%, S: 39%, Q: 65%)
